Molecular target: T1, recombinant human IL-25 protein (human, UniProt Q9H293 33-177)
T1 sequence: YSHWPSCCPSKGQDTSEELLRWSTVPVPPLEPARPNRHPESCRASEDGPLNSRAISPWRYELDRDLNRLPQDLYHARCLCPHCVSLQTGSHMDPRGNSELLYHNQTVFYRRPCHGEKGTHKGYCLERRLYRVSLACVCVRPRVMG
Experiment: cell-based or functional assay
Property Label: IC50, IL-25 induced IL-5 production in human PBMC (nM)
Give the value in nM but do not write nM after it.

IC50, IL-25 induced IL-5 production in human PBMC measured on IL25Ab9 (antibody, V domains shown) VH: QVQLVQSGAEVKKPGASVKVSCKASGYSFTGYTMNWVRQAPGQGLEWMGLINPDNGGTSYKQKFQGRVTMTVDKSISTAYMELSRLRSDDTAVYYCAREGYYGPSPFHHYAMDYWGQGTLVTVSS VL: DIQMTQSPSSLSASVGDRVTITCQASQDISNYLNWYQQKPGKAPKLLIYYTSTLHTGVPSRFSGSGSGTDYTFTISSLQPEDIATYYCQQYSKLPYTFGQGTKLEIK = 0.435

IC50, IL-25 induced IL-5 production in human PBMC measured on IL25Ab8 (antibody, IgG1, V domains shown) VH: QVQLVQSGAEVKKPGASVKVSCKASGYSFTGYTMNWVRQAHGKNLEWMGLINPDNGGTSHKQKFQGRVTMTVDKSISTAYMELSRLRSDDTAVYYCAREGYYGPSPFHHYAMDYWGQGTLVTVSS VL: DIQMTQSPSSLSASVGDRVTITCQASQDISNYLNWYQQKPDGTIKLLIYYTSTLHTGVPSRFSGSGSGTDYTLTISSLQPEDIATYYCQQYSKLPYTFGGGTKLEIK = 1.04

IC50, IL-25 induced IL-5 production in human PBMC measured on IL25Ab6 (antibody, V domains shown) VH: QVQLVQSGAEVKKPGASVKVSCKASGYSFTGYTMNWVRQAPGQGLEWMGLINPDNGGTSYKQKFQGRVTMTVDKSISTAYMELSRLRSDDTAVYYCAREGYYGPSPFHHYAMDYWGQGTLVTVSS VL: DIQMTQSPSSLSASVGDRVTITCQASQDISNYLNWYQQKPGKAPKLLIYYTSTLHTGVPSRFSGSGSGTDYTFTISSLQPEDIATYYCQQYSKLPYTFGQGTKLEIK = 0.381

IC50, IL-25 induced IL-5 production in human PBMC measured on IL25Ab3 (antibody, V domains shown, detected with anti-human IgG or anti-human kappa reagents; also called anti-IL-25Ab3; mouse origin of anti-IL-25 specific antibody) VH: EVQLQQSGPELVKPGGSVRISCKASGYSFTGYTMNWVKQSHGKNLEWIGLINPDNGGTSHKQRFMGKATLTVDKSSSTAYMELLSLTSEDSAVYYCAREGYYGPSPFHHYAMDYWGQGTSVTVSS VL: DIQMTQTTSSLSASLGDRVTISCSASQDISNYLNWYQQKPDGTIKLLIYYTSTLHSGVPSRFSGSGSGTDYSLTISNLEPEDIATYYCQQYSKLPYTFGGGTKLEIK = 0.302

IC50, IL-25 induced IL-5 production in human PBMC measured on IL25Ab10 (antibody, V domains shown) VH: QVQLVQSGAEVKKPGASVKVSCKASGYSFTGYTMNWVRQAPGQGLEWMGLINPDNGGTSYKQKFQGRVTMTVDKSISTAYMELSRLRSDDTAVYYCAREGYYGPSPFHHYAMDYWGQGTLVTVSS VL: DIQMTQSPSSLSASVGDRVTITCQASQDISNYLNWYQQKPDGTIKLLIYYTSTLHTGVPSRFSGSGSGTDYTFTISSLQPEDIATYYCQQYSKLPYTFGQGTKLEIK = 1.43

IC50, IL-25 induced IL-5 production in human PBMC measured on IL25Ab7 (antibody, IgG1, V domains shown) VH: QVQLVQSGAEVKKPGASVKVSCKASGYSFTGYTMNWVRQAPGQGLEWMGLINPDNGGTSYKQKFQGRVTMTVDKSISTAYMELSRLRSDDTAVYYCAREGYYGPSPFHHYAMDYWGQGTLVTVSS VL: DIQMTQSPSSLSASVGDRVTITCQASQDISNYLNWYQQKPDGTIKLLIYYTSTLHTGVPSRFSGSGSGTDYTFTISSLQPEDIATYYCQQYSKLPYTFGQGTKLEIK = 0.85

IC50, IL-25 induced IL-5 production in human PBMC measured on IL25Ab11 (antibody, IgG1, V domains shown) VH: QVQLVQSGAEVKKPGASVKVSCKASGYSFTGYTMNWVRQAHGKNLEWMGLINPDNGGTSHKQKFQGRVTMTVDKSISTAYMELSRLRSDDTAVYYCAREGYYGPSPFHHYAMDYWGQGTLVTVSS VL: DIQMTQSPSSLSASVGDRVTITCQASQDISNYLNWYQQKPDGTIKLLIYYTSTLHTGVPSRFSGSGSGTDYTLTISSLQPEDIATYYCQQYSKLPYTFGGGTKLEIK = 0.953
